- Protocol Notes: Intrinsic clearance in human liver microsomes
- Format: ADME
- Condition Context: read-out: CLH (converted)
Record form. Attribute: CLint scaled. Fill in for each entry.
Numeric only. Scale: mL/min/kg

Given the entry COc1ccc(F)cc1N1CCN(c2ncnc3c2cnn3-c2ccccc2)CC1 , report its measured CLint scaled.
6.17

Queued: COc1ccccc1N1CCN(c2ncnc3c2cnn3C2CCCC2)CC1
13.8

COc1ccccc1N1CCN(c2ncnc3c2cnn3-c2ccccc2F)CC1 , same question.
8.33

What would you report for COc1ccccc1N1CCN(c2ncnc3c2cnn3-c2ccccc2)CC1 ?
2.33

COc1ccccc1N1CCN(c2ncnc3c2cnn3-c2cccc(F)c2)CC1 , same question.
9.17

* * *

Provide the recorded pIC50 for the entries that follow.
- Measurement Target: Solute carrier family 2, facilitated glucose transporter member 2 (Homo sapiens, UniProt P11168)
- Sequence (P11168 whole entry): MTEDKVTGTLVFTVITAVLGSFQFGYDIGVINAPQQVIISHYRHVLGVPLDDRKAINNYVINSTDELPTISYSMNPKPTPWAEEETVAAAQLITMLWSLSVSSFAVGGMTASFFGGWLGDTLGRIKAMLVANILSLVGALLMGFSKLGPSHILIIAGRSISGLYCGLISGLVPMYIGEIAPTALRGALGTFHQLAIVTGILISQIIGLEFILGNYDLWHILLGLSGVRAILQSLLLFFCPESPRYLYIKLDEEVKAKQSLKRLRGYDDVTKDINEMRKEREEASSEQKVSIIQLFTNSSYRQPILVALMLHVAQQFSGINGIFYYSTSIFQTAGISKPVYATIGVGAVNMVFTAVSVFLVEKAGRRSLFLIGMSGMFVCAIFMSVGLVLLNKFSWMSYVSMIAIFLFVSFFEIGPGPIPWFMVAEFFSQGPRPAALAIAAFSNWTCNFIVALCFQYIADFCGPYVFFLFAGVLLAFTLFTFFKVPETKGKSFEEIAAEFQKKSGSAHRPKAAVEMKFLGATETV
- Protocol Notes: Inhibition of human GLUT2 expressed in CHO cells assessed as ATP production co-incubated with 30 mM fructose for 16 hrs by CellTiter-Glo assay in presence of oxidative phosphorylation inhibitor rotenone
The value called pIC50 is obtained by taking minus log10 of the concentration in mol/L.

For the molecule COc1cccnc1N1CCN(c2ncnc3c2cnn3-c2ccccc2)CC1 , what pIC50 is on record?
6.02

Input COc1cccc(F)c1N1CCN(c2ncnc3c2cnn3-c2ccccc2)CC1
5.92

Here is the next molecule: COc1ccccc1N1CCN(c2ncnc3c2cnn3-c2cccnc2)CC1
5.22

* * *

- Protocol Notes: Volume of distribution at steady state in Wistar rat at 0.3 mg/kg, iv and 5 mg/kg, po
- Format: ADME, organism-based
- Condition Context: in vivo, read-out: Vdss
Measured Metric: Vd (L/kg)
Just the number in L/kg, nothing appended.

Quick check: Vd of COc1ccccc1N1CCN(c2ncnc3c2cnn3-c2ccccc2F)CC1 ?
1.9

* * *

- Protocol Notes: Apparent permeability from apical to basolateral side in human Caco2 cells at 2 uM after 2 hrs
- Assay type: ADME, cell-based
- Condition Context: Caco-2
Measured Metric: Papp A→B at 2 h, 2 µM (×10⁻⁶ cm/s)
Field: numeric (×10⁻⁶ cm/s). Do not append units.

Recorded Papp A→B at 2 h, 2 µM for COc1ccccc1N1CCN(c2ncnc3c2cnn3-c2ccccc2F)CC1 , please?
17.5

Also, COc1ccccc1N1CCN(c2ncnc3c2cnn3-c2ccccc2)CC1 please.
5.9

Next molecule up: COc1ccccc1N1CCN(c2ncnc3c2cnn3C2CCCC2)CC1
15.3

* * *

- Protocol Notes: Intrinsic clearance in human hepatocytes
- Format: ADME, cell-based, Hepatocyte
- Condition Context: read-out: CLH (converted)
Measured Metric: CLint scaled (mL/min/kg)
Numeric only. Scale: mL/min/kg

Can you share its CLint scaled? I mean this molecule: COc1ccccc1N1CCN(c2ncnc3c2cnn3-c2ccccc2F)CC1
13.2

Please answer likewise for COc1ccccc1N1CCN(c2ncnc3c2cnn3-c2ccccc2)CC1
14

* * *

- Protocol Notes: Blood clearance in Wistar rat at 0.3 mg/kg, iv and 5 mg/kg, po
- Format: ADME, organism-based
- Condition Context: whole blood
Measured Metric: clearance (mL/min/kg)
Report the value in mL/min/kg with no unit label.

What value of measured clearance is listed for COc1ccccc1N1CCN(c2ncnc3c2cnn3-c2ccccc2F)CC1 ?
20

* * *

- Measurement Target: UniProt P11166
- Sequence (P11166 whole entry): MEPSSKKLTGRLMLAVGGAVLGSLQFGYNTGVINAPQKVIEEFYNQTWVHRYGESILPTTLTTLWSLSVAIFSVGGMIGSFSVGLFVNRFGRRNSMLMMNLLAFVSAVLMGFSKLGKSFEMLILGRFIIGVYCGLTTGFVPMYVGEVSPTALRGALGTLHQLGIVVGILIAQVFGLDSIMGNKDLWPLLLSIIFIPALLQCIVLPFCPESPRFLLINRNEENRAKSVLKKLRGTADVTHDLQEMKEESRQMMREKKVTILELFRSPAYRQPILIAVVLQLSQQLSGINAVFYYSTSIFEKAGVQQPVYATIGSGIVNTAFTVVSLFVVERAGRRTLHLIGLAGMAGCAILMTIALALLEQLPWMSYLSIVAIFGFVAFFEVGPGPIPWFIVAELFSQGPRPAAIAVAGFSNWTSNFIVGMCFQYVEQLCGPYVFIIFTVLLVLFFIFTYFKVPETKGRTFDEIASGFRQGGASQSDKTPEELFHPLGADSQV
- Protocol Notes: Inhibition of human GLUT1 expressed in DLD1 cells assessed as ATP production co-incubated with 100 mM glucose for 16 hrs by CellTiter-Glo assay in presence of oxidative phosphorylation inhibitor rotenone
Measured Metric: pIC50
Just the number, please; pIC50 means minus log10 of the concentration in mol/L.

So what does the record say about pIC50 for N#Cc1cccc(N2CCN(c3ncnc4c3cnn4-c3ccccc3)CC2)c1 ?
7.41

Ok, now COc1ccccc1N1CCN(c2ncnc3c2cnn3-c2ccncc2)CC1
5.92

Now the same for COc1cc(F)ccc1N1CCN(c2ncnc3c2cnn3-c2ccccc2)CC1
8.00

Consider next the molecule COc1cccc(N2CCN(c3ncnc4c3cnn4-c3ccccc3)CC2)c1 in the same way.
6.74

Same read-out for COc1ccccc1N1CCN(c2ncnc3c2cnn3-c2cccc(C)c2)CC1 ?
7.30

Same read-out for COc1ccccc1N1CCN(c2ncnc3c2cnn3-c2ccccc2)CC1 ?
7.60

Likewise for COc1ccccc1N1C[C@@H]2C[C@H]1CN2c1ncnc2c1cnn2-c1ccccc1 ?
5.64

Same question, COc1ccccc1N1CCN(c2ncnc3c2cnn3-c2cc(F)cc(F)c2)CC1 this time
8.10
